# experimental.target: NS3 (West Nile virus, UniProt K4FQI5)
# Sequence (K4FQI5 whole entry): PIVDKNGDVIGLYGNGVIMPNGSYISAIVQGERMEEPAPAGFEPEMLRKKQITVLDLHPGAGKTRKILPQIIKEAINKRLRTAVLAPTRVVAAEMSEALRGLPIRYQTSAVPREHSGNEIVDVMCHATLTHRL
# method.description: Functional biochemical assay to identify treatments for viral infectious disease that targets West Nile NS2B-NS3 protease. Utilizing a direct enzyme activity measurement method, reading the fluorescence intensity is used to characterize the relative potency of inhibitors as IC50.
property: IC50

Record excerpt, results attached:
• O=C(Nc1ccc2c(c1)CNC2)c1cc(Cl)cc2[nH]c(C3(n4ccnn4)CC3)nc12 = > 99.5 µM
• CCn1c(=O)c(N2C[C@H]3CCS(=O)(=O)[C@H]3C2)nc2ccccc21 = > 99.5 µM
• CN1Cc2ccc(NC(=O)c3cc(Cl)cc4[nH]ncc34)cc2C1 = > 99.5 µM
• N=C(N)NCCc1ccc(OC(=O)Nc2ccccc2)cc1 = > 100 µM

QUERY: Query: IC50; subject: O=C(Nc1ccccc1)OCc1ccccc1 [BENZYL PHENYLCARBAMATE]
RESULT: > 100 µM
